# Subject Of Test: Cytochrome P450 2D6 (Homo sapiens)
# Assay Remarks: Cytochrome P450 Family 2 Subfamily D Member 6 (CYP2D6) small molecule antagonists: luciferase reporter qHTS assay (AID 1671196); further: nearly all actives have a fitted effect of over 50% in size
# Condition: P450-Glo CYP2D6 enzyme assay, luciferin luminescence, 1 h; series mostly up to 115 µM
Inconclusive results are not listed. Active and inactive are the calls of the source. The call rests on the fitted dose curve; in most records, active means well fitted inhibition curve with a large enough effect in the repeat runs; inconclusive means weak or mixed curves; inactive means no such curve, though single readings can be large or run the other way.
Classes used: TRUE = active, FALSE = inactive

| Molecule | Assigned Label |
| --- | --- |
| NC(=O)c1cc[n+](CC2=C(C(=O)[O-])N3C(=O)[C@@H](NC(=O)Cc4cccs4)[C@H]3SC2)cc1 | FALSE |
| C[C@H](N)C(=O)N[C@@H](C)C(=O)NC1[C@H]2CN(c3nc4c(cc3F)c(=O)c(C(=O)O)cn4-c3ccc(F)cc3F)C[C@@H]12 (stereo partly specified) | FALSE |
| O=C(OC1C[C@H]2CC[C@@H](C1)[N+]21CCCC1)C(O)(c1ccccc1)c1ccccc1 (stereo partly specified) | TRUE |
| CCC1=C(C)CN(C(=O)NCCc2ccc(S(=O)(=O)NC(=O)NC3CCC(C)CC3)cc2)C1=O (stereo unspecified) | FALSE |
| O=C(c1ccco1)N1CCNCC1 | FALSE |
| N#Cc1ccc(CC(=O)c2cccc(C(F)(F)F)c2)cc1 | TRUE |
| CC(C)CC(C)(C)C | TRUE |
| CC(=O)Nc1ccn(C2COC(COC(=O)c3ccccc3)O2)c(=O)n1 (stereo unspecified) | FALSE |
| CCCCCO | FALSE |
| CC1(C)[C@@H]2CC[C@]3(C2)[C@@H]1C(=O)CCC3(C)C | TRUE |
| CC(C)Oc1ccccc1O | FALSE |

* * *

# Assay Remarks: qHTS assay for small molecule disruptors of the mitochondrial membrane potential - cell viability (AID 720634);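 further: human HepG2 liver cancer cells; nearly all actives have a fitted effect of over 20% in size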
# Condition: HepG2 viability, ATP luminescence (CellTiter-Glo), 1 h; series mostly up to 83.2 µM
Inconclusive results are not listed. Active and inactive are the calls of the source. Calls come from the whole dose curve.
Quantity Name: outcome

| Compound | Quantity Name | Val |
| --- | --- | --- |
| CO[C@@H]1COCC[C@@H]1N[C@@H]1CC[C@@](C(=O)N2CCc3ncc(C(F)(F)F)cc3C2)(C(C)C)C1 | outcome | inactive |
| CC(CN=Cc1ccccc1O)N=Cc1ccccc1O (centres undefined) | outcome | inactive |
| CC/C=C\CCO | outcome | inactive |
| SCCOCCOCCS | outcome | inactive |
| CCCCC(CC)COCCC#N (centres undefined) | outcome | inactive |
| C1=COCCC1 | outcome | inactive |
| Clc1cc(Cl)c2c(c1)N=C1CCCCCN1C2 | outcome | inactive |
| OCCOc1cccc(OCCO)c1 | outcome | inactive |
| CCc1cnc(C(=O)O)c(C(=O)O)c1 | outcome | inactive |
| NC(=O)c1ccccc1 | outcome | inactive |
| CCCCCCCCCCCCSC#N | outcome | inactive |
| CCC1=C(C)CN(C(=O)NCCc2ccc(S(=O)(=O)NC(=O)NC3CCC(C)CC3)cc2)C1=O (centres undefined) | outcome | inactive |
| CCC(C)C1N=C(C)C(C)S1 (centres undefined) | outcome | inactive |
| COc1cccc([C@H](O)C2CCN(CCc3ccc(F)cc3)CC2)c1OC | outcome | inactive |

Hello, the source for this data is PubChem BioAssay (Tox21), in case you need it.
